- Reported conditions: in acetonitrile, 305.65 K
Readout: solubility (mole fraction)
// print number alone

# get_value(readout='solubility (mole fraction)', item= Nc1cc(Cl)ccc1C(=O)O ) 0.00395

###

- Reported conditions: in ethanol, 285.65 K
Readout: solubility (mole fraction)
// print number alone

# get_value(readout='solubility (mole fraction)', item= Nc1cc(Cl)ccc1C(=O)O ) 0.0129

###

- Reported conditions: in n-propanol, 305.65 K
Readout: solubility (mole fraction)
// print number alone

# get_value(readout='solubility (mole fraction)', item= Nc1cc(Cl)ccc1C(=O)O ) 0.0214

###

- Reported conditions: in NMP, 310.65 K
Readout: solubility (mole fraction)

# get_value(readout='solubility (mole fraction)', item= Nc1cc(Cl)ccc1C(=O)O ) 0.0581
